target: MINK1 (human); test: radiometric filter-binding kinase assay; conditions: compound 1.0 µM
MEASUREMENT_KIND: residual activity (%)

[I] COc1cc(C(=O)N2CCOCC2)c(F)cc1Nc1ncc(C(F)(F)F)c(NC2CC2)n1
[II] NC(=O)c1cc2c(-c3cccc(-c4ccccc4)c3)cnc(N)c2s1
Please tell me which of the two, I or II , has the higher reported residual activity value. Label of pick, please.
I
(I: 124%, II: 12%)

----------
target: BRSK2 (human) (UniProt Q8IWQ3); test: radiometric filter-binding kinase assay; conditions: compound 0.1 µM
Sequence (Q8IWQ3 whole entry, looked up): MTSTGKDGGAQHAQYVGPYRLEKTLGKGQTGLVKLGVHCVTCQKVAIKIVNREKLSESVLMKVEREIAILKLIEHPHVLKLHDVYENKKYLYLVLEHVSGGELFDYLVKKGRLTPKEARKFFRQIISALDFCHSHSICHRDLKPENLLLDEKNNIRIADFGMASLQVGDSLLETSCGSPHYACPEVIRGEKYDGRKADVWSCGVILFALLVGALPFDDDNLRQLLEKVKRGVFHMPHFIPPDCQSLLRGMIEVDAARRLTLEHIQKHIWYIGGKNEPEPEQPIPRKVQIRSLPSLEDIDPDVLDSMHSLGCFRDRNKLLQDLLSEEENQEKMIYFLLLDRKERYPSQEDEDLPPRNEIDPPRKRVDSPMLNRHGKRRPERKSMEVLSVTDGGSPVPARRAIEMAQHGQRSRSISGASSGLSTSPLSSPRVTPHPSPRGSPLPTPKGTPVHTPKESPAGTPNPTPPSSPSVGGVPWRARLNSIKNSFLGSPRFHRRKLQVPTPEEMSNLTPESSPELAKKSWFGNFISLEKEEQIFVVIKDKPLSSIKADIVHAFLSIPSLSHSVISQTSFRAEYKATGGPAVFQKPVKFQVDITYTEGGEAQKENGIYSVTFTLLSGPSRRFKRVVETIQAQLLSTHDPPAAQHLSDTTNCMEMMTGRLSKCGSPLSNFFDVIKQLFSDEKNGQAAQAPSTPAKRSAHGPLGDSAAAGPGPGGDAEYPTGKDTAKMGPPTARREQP
MEASUREMENT_KIND: residual activity (%)

Worked examples, 8 compounds total:
COMPOUND	residual activity (%)
Cn1c(=O)c2c(ncn2C)n(C)c1=O	99
Cc1cccc(-c2nn(C(=S)Nc3ccccc3)cc2-c2ccnc3ccccc23)n1	117
COc1cc(O)c2c(c1)[C@H]1OC1C[C@H](O)[C@H](O)C(=O)/C=C\C[C@H](C)OC2=O (stereo partly specified)	93
NC(=O)Nc1ccc2c(c1)/C(=C/c1cc(-c3cccnc3)c[nH]1)C(=O)N2	13
CNC(=O)C1[C@H]2O[C@@](C)([C@@H]1N)n1c3ccccc3c3c4c(c5c6ccccc6n2c5c31)C(=O)NC4 (stereo partly specified)	10
NC(=O)c1cc2c(-c3cccc(-c4ccccc4)c3)cnc(N)c2s1	109
Cc1ccc(-c2ccc3c(ccc4sc5c(c43)NC[C@@H](C)NC5=O)n2)cn1	77
O=C(Nc1ccccc1-c1cn2c(CN3CCNCC3)csc2n1)c1cnc2ccccc2n1	86

[a] Cc1cc(NC(=O)c2cccc(NC(=O)/C=C/CN(C)C)c2)ccc1Nc1nccc(-c2cccnc2)n1
[b] CCCCCc1ccc(/C=C/[C@H](O)[C@@H](CO)NC)cc1
# argmax over residual activity for candidates a and b Response format: the label of the selected entry.
b
(b: 130%, a: 87%)

[I] NC1(c2ccc(-c3nc4ccn5c(=O)[nH]nc5c4cc3-c3ccccc3)cc2)CCC1
[II] NC(=O)c1cc(-c2ccnc(NC3CCCCC3)c2)nc(N2CCNCC2)c1
Recorded residual activity values differ for I and II ; which one is higher? Please indicate the selected item by its label.
I
